- testedOn: prostaglandin H synthase (cyclooxygenase) (Ovis aries, UniProt P05979)
- Sequence (P05979 25-600): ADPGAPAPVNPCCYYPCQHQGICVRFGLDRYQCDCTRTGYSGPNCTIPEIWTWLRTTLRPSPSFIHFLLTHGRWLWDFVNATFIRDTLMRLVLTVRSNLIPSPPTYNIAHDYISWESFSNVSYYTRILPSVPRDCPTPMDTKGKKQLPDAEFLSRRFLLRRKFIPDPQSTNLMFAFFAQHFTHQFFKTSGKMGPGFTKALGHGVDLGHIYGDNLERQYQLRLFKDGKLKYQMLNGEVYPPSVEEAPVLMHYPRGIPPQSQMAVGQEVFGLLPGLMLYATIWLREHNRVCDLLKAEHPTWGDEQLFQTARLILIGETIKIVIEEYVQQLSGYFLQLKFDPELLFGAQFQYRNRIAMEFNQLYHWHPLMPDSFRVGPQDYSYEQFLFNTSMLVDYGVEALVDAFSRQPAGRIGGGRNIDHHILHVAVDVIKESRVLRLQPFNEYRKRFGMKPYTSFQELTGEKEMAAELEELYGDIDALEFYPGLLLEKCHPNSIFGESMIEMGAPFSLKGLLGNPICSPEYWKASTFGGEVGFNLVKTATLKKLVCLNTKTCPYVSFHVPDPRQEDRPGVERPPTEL
propertyMeasured: IC50 (nM)
The figure you give is taken to be in nM; do not add the unit.

Examples with answers:
[[record]]
molecule = "Nc1c(CC(=O)O)cccc1C(=O)c1ccc(Br)cc1 [Bromfenac, reference compound]"
resultunit = "nM"
experimentalresult = 29

[[record]]
molecule = "Nc1c(CC(=O)O)cccc1C(=O)c1ccc(F)cc1 [4'-F OH, reference compound]"
resultunit = "nM"
experimentalresult = 171

[[record]]
molecule = "Nc1c(CC(=O)O)cccc1C(=O)c1ccc(Cl)cc1 [4'-Cl OH, reference compound]"
resultunit = "nM"
experimentalresult = 70

[[record]]
molecule = "Nc1c(CC(=O)O)cccc1C(=O)c1ccccc1 [Amfenac, 2-amino-3-benzoylbenzeneacetic acid, reference compound]"
resultunit = "nM"
experimentalresult = 250


Query block: Quick check: IC50 of NC(=O)Cc1cccc(C(=O)c2ccccc2)c1N [Compound 8, 2-Amino-3-benzoyl-phenylacetamide] ?
Result block: 64000
